Data provenance: patent US20250368745A1

- Experimental System: T1, human IL-18BP (human, UniProt O95998 31-194)
- T1 construct: UniProt printed as 095998; also called hIL-18BP
- T1 sequence: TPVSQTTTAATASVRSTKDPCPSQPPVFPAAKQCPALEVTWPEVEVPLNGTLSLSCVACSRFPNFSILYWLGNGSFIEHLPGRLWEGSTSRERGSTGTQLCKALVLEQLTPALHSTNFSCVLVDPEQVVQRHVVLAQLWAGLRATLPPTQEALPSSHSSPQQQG
- Assay Text: BLI, apparent KD
Readout: pKd
Answer as the number alone; pKd is minus log10 of concentration in mol/L.

Worked examples, 5 binders total:
- SA301a HC-N58I (antibody, name in Kabat numbering, V domains shown, IgG1 kappa) VH: QVQLQESGPGLVKPSQTLSLTCTVSGYSITSDYNSHWIRQPPGKGLEWIGYIHYSGSTIYNPSLKSRVTISRDTSKNQFSLKLSSVTAADTAVYYCARNYGSIYVNYFDYWGQGTLVTVSS VL: EIVLTQSPATLSLSPGERATLSCSASSSVSYMYWYQQKPGQAPRPLIYRTSNLASGIPARFSGSGSGTDFTLTISSLEPEDFAVYYCQQYHSYPTFGGGTKVEIK: 9.57
- SA301a HC-T57G (antibody, name in Kabat numbering, V domains shown, IgG1 kappa) VH: QVQLQESGPGLVKPSQTLSLTCTVSGYSITSDYNSHWIRQPPGKGLEWIGYIHYSGSGNYNPSLKSRVTISRDTSKNQFSLKLSSVTAADTAVYYCARNYGSIYVNYFDYWGQGTLVTVSS VL: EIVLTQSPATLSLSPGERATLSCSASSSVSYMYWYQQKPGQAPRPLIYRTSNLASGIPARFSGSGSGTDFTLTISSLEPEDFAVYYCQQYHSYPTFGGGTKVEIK: 9.96
- SA301a HC-G55D (antibody, name in Kabat numbering, V domains shown, IgG1 kappa) VH: QVQLQESGPGLVKPSQTLSLTCTVSGYSITSDYNSHWIRQPPGKGLEWIGYIHYSDSTNYNPSLKSRVTISRDTSKNQFSLKLSSVTAADTAVYYCARNYGSIYVNYFDYWGQGTLVTVSS VL: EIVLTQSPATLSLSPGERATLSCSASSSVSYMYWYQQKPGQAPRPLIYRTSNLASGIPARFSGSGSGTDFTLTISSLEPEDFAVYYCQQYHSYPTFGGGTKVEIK: 8.86
- SA301a HC-N58G (antibody, name in Kabat numbering, V domains shown, IgG1 kappa) VH: QVQLQESGPGLVKPSQTLSLTCTVSGYSITSDYNSHWIRQPPGKGLEWIGYIHYSGSTGYNPSLKSRVTISRDTSKNQFSLKLSSVTAADTAVYYCARNYGSIYVNYFDYWGQGTLVTVSS VL: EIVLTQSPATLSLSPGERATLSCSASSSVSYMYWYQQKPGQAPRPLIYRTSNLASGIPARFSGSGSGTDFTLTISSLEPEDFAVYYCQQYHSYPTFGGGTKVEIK: 8.36
- SA301a HC-S56Y (antibody, name in Kabat numbering, V domains shown, IgG1 kappa) VH: QVQLQESGPGLVKPSQTLSLTCTVSGYSITSDYNSHWIRQPPGKGLEWIGYIHYSGYTNYNPSLKSRVTISRDTSKNQFSLKLSSVTAADTAVYYCARNYGSIYVNYFDYWGQGTLVTVSS VL: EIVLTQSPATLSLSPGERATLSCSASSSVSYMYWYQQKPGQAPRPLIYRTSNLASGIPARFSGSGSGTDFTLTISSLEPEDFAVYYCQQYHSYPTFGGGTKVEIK: 9.00

Task item: Look up and state reported pKd for SA301a HC-T57K (antibody, name in Kabat numbering, V domains shown, IgG1 kappa) VH: QVQLQESGPGLVKPSQTLSLTCTVSGYSITSDYNSHWIRQPPGKGLEWIGYIHYSGSKNYNPSLKSRVTISRDTSKNQFSLKLSSVTAADTAVYYCARNYGSIYVNYFDYWGQGTLVTVSS VL: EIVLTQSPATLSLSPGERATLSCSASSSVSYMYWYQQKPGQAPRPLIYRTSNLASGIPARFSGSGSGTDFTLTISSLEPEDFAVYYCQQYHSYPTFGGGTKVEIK
Reply: 9.28

Task item: Give the value of pKd reported for the following: SA301a HC-Y59L (antibody, name in Kabat numbering, V domains shown, IgG1 kappa) VH: QVQLQESGPGLVKPSQTLSLTCTVSGYSITSDYNSHWIRQPPGKGLEWIGYIHYSGSTNLNPSLKSRVTISRDTSKNQFSLKLSSVTAADTAVYYCARNYGSIYVNYFDYWGQGTLVTVSS VL: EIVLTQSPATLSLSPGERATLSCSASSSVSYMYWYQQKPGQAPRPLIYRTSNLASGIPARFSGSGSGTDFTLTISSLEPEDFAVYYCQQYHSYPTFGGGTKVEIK
Reply: 9.38

Task item: Return pKd for the following binder: SA301a HC-N58Q (antibody, name in Kabat numbering, V domains shown, IgG1 kappa) VH: QVQLQESGPGLVKPSQTLSLTCTVSGYSITSDYNSHWIRQPPGKGLEWIGYIHYSGSTQYNPSLKSRVTISRDTSKNQFSLKLSSVTAADTAVYYCARNYGSIYVNYFDYWGQGTLVTVSS VL: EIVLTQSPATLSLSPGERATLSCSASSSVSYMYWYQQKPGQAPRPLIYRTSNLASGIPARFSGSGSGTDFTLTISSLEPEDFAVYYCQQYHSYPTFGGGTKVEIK
Reply: 9.21

Task item: Name the recorded pKd of the binder listed here: SA301a HC-S56R (antibody, name in Kabat numbering, V domains shown, IgG1 kappa) VH: QVQLQESGPGLVKPSQTLSLTCTVSGYSITSDYNSHWIRQPPGKGLEWIGYIHYSGRTNYNPSLKSRVTISRDTSKNQFSLKLSSVTAADTAVYYCARNYGSIYVNYFDYWGQGTLVTVSS VL: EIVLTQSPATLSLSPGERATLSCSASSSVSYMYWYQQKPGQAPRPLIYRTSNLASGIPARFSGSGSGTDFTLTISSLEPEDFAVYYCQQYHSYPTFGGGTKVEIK
Reply: 9.77

Task item: Find the measured pKd of SA301a HC-T57Y (antibody, name in Kabat numbering, V domains shown, IgG1 kappa) VH: QVQLQESGPGLVKPSQTLSLTCTVSGYSITSDYNSHWIRQPPGKGLEWIGYIHYSGSYNYNPSLKSRVTISRDTSKNQFSLKLSSVTAADTAVYYCARNYGSIYVNYFDYWGQGTLVTVSS VL: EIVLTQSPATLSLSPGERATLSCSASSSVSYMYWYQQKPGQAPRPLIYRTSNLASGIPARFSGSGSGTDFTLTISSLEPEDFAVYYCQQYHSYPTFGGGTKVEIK and report it.
Reply: 8.76
